Catalogue of binding signal values
- Target under test: T1, RBFOX1 RRM RbFoxmut (Fox-RRM*) (Homo sapiens, UniProt Q9NWB1 109-208, R118D;E147R;N151S;E152T)
- T1 sequence: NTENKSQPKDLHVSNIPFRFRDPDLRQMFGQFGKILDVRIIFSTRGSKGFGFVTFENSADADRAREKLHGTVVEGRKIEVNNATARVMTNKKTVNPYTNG
- Protocol text: EMSA; HiTS-Eq, 1 nM pool, 10 min; buffer printed only for the single-RNA assays: 10 mM Tris pH 7.5, 150 mM NaCl, 3.4 mM EDTA, 0.001% NP-40, 30 C
- Particulars: tags: His6 N-terminal (pET28a); label: 5' 32P
In all, about 16,000 sequences were measured (“ka relative to ugcaugu”: median about 0.096, highest 2% from about 0.35 on). The sample holds the highest values, similar sequences and a random draw of the others, so the mix is not that of the screen.
Measured quantity: binding signal

Binder	Result
GUCAUAC (DNA:RNA) RNA: GGGAGACCGGAAUUCAGAUUGUCCGUCAUACUUAAAUCCCGUCGUAGCCACCA DNA 1: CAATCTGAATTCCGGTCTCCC DNA 2: TGGTGGCTACGACGGGATT	0.1 KA relative to UGCAUGU
GAACCCG (DNA:RNA) RNA: GGGAGACCGGAAUUCAGAUUGUCCGAACCCGUUAAAUCCCGUCGUAGCCACCA DNA 1: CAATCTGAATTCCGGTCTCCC DNA 2: TGGTGGCTACGACGGGATT	0.0645 KA relative to UGCAUGU
ACGUAUG (DNA:RNA) RNA: GGGAGACCGGAAUUCAGAUUGUCCACGUAUGUUAAAUCCCGUCGUAGCCACCA DNA 1: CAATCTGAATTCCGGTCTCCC DNA 2: TGGTGGCTACGACGGGATT	0.385 KA relative to UGCAUGU
GGUCGUC (DNA:RNA) RNA: GGGAGACCGGAAUUCAGAUUGUCCGGUCGUCUUAAAUCCCGUCGUAGCCACCA DNA 1: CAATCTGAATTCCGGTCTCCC DNA 2: TGGTGGCTACGACGGGATT	0.159 KA relative to UGCAUGU
ACCAGUC (DNA:RNA) RNA: GGGAGACCGGAAUUCAGAUUGUCCACCAGUCUUAAAUCCCGUCGUAGCCACCA DNA 1: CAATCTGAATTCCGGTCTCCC DNA 2: TGGTGGCTACGACGGGATT	0.063 KA relative to UGCAUGU
CAGUAUG (DNA:RNA) RNA: GGGAGACCGGAAUUCAGAUUGUCCCAGUAUGUUAAAUCCCGUCGUAGCCACCA DNA 1: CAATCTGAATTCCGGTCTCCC DNA 2: TGGTGGCTACGACGGGATT	0.566 KA relative to UGCAUGU
AACUUAC (DNA:RNA) RNA: GGGAGACCGGAAUUCAGAUUGUCCAACUUACUUAAAUCCCGUCGUAGCCACCA DNA 1: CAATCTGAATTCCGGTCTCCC DNA 2: TGGTGGCTACGACGGGATT	0.0902 KA relative to UGCAUGU
CCCAGUA (DNA:RNA) RNA: GGGAGACCGGAAUUCAGAUUGUCCCCCAGUAUUAAAUCCCGUCGUAGCCACCA DNA 1: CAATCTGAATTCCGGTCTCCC DNA 2: TGGTGGCTACGACGGGATT	0.116 KA relative to UGCAUGU
CGGUCGU (DNA:RNA) RNA: GGGAGACCGGAAUUCAGAUUGUCCCGGUCGUUUAAAUCCCGUCGUAGCCACCA DNA 1: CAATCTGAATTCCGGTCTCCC DNA 2: TGGTGGCTACGACGGGATT	0.104 KA relative to UGCAUGU
UUAGCGG (DNA:RNA) RNA: GGGAGACCGGAAUUCAGAUUGUCCUUAGCGGUUAAAUCCCGUCGUAGCCACCA DNA 1: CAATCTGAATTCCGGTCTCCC DNA 2: TGGTGGCTACGACGGGATT	0.0965 KA relative to UGCAUGU
GGUAUGU (DNA:RNA) RNA: GGGAGACCGGAAUUCAGAUUGUCCGGUAUGUUUAAAUCCCGUCGUAGCCACCA DNA 1: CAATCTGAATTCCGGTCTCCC DNA 2: TGGTGGCTACGACGGGATT	0.662 KA relative to UGCAUGU
